# PROTOCOL DESCRIPTION: In vivo brain pharmacokinetic study
# SETTINGS: mouse, brain/plasma; ICR male mice, IV, 2 mg/kg, 1 h; read-out: Brain/plasma ratio 1 h
ASSAY METRIC: Kp at 1 h

**Q:** Give the measured Kp at 1 h for "O=C(NO)c1ccc(-c2nc3ccccc3s2)cc1"
**A:** 7.2

----------
ASSAY METRIC: pIC50
Quick note: pIC50 means taking -log10 of the concentration in moles per liter.

**Q:** Please indicate recorded pIC50 of "O=C(NO)c1ccc(-c2nc3ccccc3s2)cc1" measured with HDAC3 (Homo sapiens, UniProt O15379).
Sequence (O15379 whole entry): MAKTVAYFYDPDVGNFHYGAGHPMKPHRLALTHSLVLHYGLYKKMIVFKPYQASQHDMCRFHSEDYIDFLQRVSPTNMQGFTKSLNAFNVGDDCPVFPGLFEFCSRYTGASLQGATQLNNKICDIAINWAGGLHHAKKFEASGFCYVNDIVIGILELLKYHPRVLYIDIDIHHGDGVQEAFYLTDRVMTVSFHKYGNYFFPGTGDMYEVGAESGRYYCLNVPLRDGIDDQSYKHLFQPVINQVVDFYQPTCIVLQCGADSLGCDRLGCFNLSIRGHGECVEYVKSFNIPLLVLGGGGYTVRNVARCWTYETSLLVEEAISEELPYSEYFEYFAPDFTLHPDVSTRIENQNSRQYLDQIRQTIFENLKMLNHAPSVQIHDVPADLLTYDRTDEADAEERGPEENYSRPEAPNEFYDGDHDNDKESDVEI
Sequence (Q9Y618 395-489 partner limits assumed): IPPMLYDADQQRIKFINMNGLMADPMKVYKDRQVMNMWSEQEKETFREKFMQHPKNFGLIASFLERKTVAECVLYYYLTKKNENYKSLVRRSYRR
**A:** 6.85

----------
# TARGET OR SYSTEM: HDAC6 (Homo sapiens, UniProt Q9UBN7)
# Sequence (Q9UBN7 1-1215): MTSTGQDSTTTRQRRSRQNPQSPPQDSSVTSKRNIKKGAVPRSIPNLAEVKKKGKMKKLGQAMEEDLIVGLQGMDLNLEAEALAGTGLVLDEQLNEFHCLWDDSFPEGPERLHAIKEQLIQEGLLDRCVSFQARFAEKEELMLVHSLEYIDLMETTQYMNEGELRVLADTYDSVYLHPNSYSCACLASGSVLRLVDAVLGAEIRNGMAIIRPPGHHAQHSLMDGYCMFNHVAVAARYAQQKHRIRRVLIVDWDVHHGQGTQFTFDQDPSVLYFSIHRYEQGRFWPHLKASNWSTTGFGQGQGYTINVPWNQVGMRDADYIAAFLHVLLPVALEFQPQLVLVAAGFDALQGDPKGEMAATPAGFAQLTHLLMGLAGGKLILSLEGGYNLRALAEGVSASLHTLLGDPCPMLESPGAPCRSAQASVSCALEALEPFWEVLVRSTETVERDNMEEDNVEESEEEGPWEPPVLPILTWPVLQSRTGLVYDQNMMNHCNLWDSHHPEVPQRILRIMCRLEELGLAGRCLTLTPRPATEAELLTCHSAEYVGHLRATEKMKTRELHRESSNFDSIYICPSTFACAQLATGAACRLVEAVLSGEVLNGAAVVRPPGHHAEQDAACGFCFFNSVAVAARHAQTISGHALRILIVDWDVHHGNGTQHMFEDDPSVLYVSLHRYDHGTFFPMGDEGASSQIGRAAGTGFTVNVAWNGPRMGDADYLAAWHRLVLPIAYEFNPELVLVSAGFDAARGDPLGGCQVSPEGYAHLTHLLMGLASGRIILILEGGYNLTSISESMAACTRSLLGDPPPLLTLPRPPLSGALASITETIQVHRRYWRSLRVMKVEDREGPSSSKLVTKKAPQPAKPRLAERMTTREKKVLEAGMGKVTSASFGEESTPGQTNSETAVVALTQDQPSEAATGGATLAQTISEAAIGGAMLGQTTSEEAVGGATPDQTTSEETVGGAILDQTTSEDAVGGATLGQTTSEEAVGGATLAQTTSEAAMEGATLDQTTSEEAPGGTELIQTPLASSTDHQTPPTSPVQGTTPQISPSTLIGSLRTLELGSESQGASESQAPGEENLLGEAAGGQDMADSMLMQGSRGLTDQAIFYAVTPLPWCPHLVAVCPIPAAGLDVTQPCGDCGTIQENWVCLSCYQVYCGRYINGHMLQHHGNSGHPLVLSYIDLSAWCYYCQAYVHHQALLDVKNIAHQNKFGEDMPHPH
ASSAY METRIC: IC50 (nM)
Give the number; nM is assumed, so skip it.

**Q:** Retrieve IC50 on HDAC6 (Homo sapiens, UniProt Q9UBN7); query "O=C(NO)c1ccc(-c2nc3ccccc3s2)cc1"
**A:** 95.9

----------
# PROTOCOL DESCRIPTION: In vivo brain pharmacokinetic study
# SETTINGS: mouse, brain/plasma; ICR male mice, IV, 2 mg/kg, 0.5 h; read-out: Brain/plasma ratio 0.5 h
For each of the compounds below, state its Kp at 0.5 h.
Reply briefly: the number, and no unit.

**Q:** Specify reported Kp at 0.5 h for the compound shown: "O=C(NO)c1ccc(-c2nc3ccccc3s2)cc1"
**A:** 9

**Q:** Consider the compound O=C(CCCCCCC(=O)Nc1ccccc1)NO [SAHA, suberoylanilide hydroxamic acid, reference compound] and give its recorded Kp at 0.5 h.
**A:** 0.4

----------
# PROTOCOL DESCRIPTION: In vivo brain pharmacokinetic study
# SETTINGS: mouse, brain; ICR male mice, IV, 2 mg/kg, 1 h, n = 4; read-out: Brain concentration (ng/mL) 1 h
ASSAY METRIC: concentration at 1 h (ng/mL)
The figure you give is taken to be in ng/mL; do not add the unit.

**Q:** Please indicate concentration at 1 h recorded for O=C(NO)c1ccc(-c2nc3ccccc3s2)cc1 [Compound 9b]
**A:** 52.9

----------
# PROTOCOL DESCRIPTION: In vivo brain pharmacokinetic study
# SETTINGS: mouse, brain; ICR male mice, IV, 2 mg/kg, 0.5 h, n = 4; read-out: Brain concentration (ng/mL) 0.5 h
# Procedure: The study was approved by the Institutional Animal Care and Use of Committee of Daegu-Gyeongbuk Medical Innovation Foundation (DGMIF) and performed in accordance with protocols approved by the Institutional Animal Care and Use of Committee. […] Brain and plasma samples were collected at 0.5 and 1 h time points. Brain samples were homogenized at a 1:4 ratio of sample weight (g) to PBS volume (mL). […]
ASSAY METRIC: concentration at 0.5 h
Give me the value, and tack the unit on after it.

**Q:** Write down concentration at 0.5 h measured for item O=C(CCCCCCC(=O)Nc1ccccc1)NO [SAHA, suberoylanilide hydroxamic acid, reference compound]
**A:** 14.5 ng/mL

**Q:** Hello, please tell me recorded concentration at 0.5 h for this one: "O=C(NO)c1ccc(-c2nc3ccccc3s2)cc1"
**A:** 415 ng/mL

----------
What GI50 was measured for each of the following?
# Test system: SH-SY5Y cells
# PROTOCOL DESCRIPTION: Cell proliferation (anti-proliferation) assay, MTS
# Type: cell-based, human
# SETTINGS: Homo sapiens; SH-SY5Y neuroblastoma cell line, 72 h, mean ± SD (n = 4)

**Q:** Output measured GI50 for this item: CCn1c(-c2cccc(C(=O)NO)c2)nc2ccccc21 [Compound 14b]
**A:** 28.2 µM

**Q:** // Input: "O=C(NO)c1cccc(-c2nc3ccccc3[nH]2)c1" . Output its GI50 only.
**A:** > 100 µM

**Q:** State its GI50 for this molecule: Cn1c(-c2cccc(C(=O)NO)c2)nc2ccccc21 [Compound 14a]
**A:** > 100 µM
